test system: HepG2; experiment: cytotoxicity call (relative viability < 0.9); details: 10 µM
In all, about 39,000 compounds went through this assay and about 3,300 (8.5%) were called active. For the sample, actives were picked, then their nearest neighbours and some compounds at random.
Measured metric: cytotoxicity call

Examples with answers:
- Compound: "C[C@@H]1CN([C@H](C)CO)C(=O)c2cccc(NS(=O)(=O)c3ccc(F)cc3)c2O[C@H]1CN(C)S(=O)(=O)c1ccc(F)cc1"
  cytotoxicity call: "inactive"
- Compound: "CC(=O)NCCCC[C@@H]1NC(=O)[C@H]2C[C@@H](C(=O)NCCCCCCN(C)C)[C@@H](c3ccc(O)cc3)N2C1=O"
  cytotoxicity call: "inactive"
- Compound: "COc1ccc2c3c(n(c2c1)C)[C@H](CO)N(C[C@]13CN(CC2CCOCC2)C1)C(=O)c1ccc(cc1)F"
  cytotoxicity call: "inactive"
- Compound: "O=S1(=O)CC[C@H](N2CCOCC2)C1"
  cytotoxicity call: "inactive"
- Compound: "C[C@@H]1CN([C@H](C)CO)C(=O)c2cc(NC(=O)Nc3ccc(C(F)(F)F)cc3)ccc2O[C@@H](C)CCCCO[C@H]1CN(C)S(=O)(=O)c1cccs1"
  cytotoxicity call: "inactive"
- Compound: "C[C@H](CO)N1C[C@H](C)[C@@H](CN(C)Cc2ccccc2)Oc2ccc(NC(=O)Nc3ccc(C(F)(F)F)cc3)cc2C1=O"
  cytotoxicity call: "active"
- Compound: "COc1ccc(NC(=O)Nc2ccc3c(c2)C(=O)N([C@@H](C)CO)C[C@H](C)[C@H](CN(C)C(=O)C2CCCCC2)OCCCC[C@H](C)O3)cc1"
  cytotoxicity call: "active"
- Compound: "COc1ccc(NC(=O)Nc2ccc3c(c2)C(=O)N([C@@H](C)CO)C[C@H](C)[C@@H](CN(C)C(=O)C2CCCCC2)OCCCC[C@@H](C)O3)cc1"
  cytotoxicity call: "inactive"
- Compound: "C[C@H]1CN([C@@H](C)CO)C(=O)Cc2cc(NC(=O)Nc3cc(Cl)cc(Cl)c3)ccc2O[C@H]1CN(C)S(=O)(=O)c1ccc(Cl)cc1"
  cytotoxicity call: "active"
- Compound: "Cc1noc(C)c1S(=O)(=O)N(C)C[C@@H]1Oc2ccc(NS(=O)(=O)c3ccccc3)cc2C(=O)N([C@@H](C)CO)C[C@@H]1C"
  cytotoxicity call: "inactive"

Here are 5 compounds. What values of cytotoxicity call were reported for them?
1. CC(C)NC(=O)Nc1ccc2c(c1)CC(=O)N([C@@H](C)CO)C[C@@H](C)[C@@H](CN(C)S(=O)(=O)c1ccc(Cl)cc1)O2
2. CC(=O)OC1CCC2(C)C(CC(OC(C)=O)C3(C)C2CCC2(C)C(c4ccoc4)OC(=O)C4OC423)C1(C)C (stereo not drawn) [3beta-ACETOXYDEOXODIHYDROGEDUNIN ]
3. Cn1ccnc1CN1CC[C@]2(COCCN(S(C)(=O)=O)C2)C1
4. COc1ccccc1CNC(=O)C[C@H]1C[C@H]2c3cc(NC(=O)c4ccc5c(c4)OCO5)ccc3O[C@H]2[C@@H](CO)O1
5. O=C(C1=C[C@@H](c2ccsc2)C[C@@H](OCCCCO)O1)N1CCN(Cc2ccc3c(c2)OCO3)CC1

["inactive", "inactive", "inactive", "inactive", "inactive"]

Here are 6 compounds. What values of cytotoxicity call were reported for them?
1. COc1ccc(NC(=O)Nc2ccc3c(c2)C(=O)N([C@H](C)CO)C[C@@H](C)[C@H](CN(C)C(=O)C2CCCCC2)OCCCC[C@@H](C)O3)cc1
2. CO[C@H](CN(C)C(=O)C1CCOCC1)[C@@H](C)CN(C(=O)Nc1ccc(C(F)(F)F)cc1)[C@H](C)CO
3. Cc1ccc(S(=O)(=O)N(C)C[C@@H]2Oc3ccc(NC(=O)CCCN(C)C)cc3CC(=O)N([C@H](C)CO)C[C@H]2C)cc1
4. COc1ccc(NC(=O)Nc2ccc3c(c2)C(=O)N([C@H](C)CO)C[C@@H](C)[C@H](CN(C)C(=O)C2CCCCC2)OCCCC[C@H](C)O3)cc1
5. COc1ccccc1CNC(=O)C[C@H]1C[C@@H]2c3cc(NS(=O)(=O)c4ccc(F)cc4)ccc3O[C@@H]2[C@H](CO)O1
6. C[C@H]1CN([C@@H](C)CO)C(=O)c2c(c3ccccc3n2C)-c2ccccc2CO[C@H]1CN(C)Cc1ccc(Oc2ccccc2)cc1

active
inactive
inactive
inactive
inactive
inactive

Here are 6 compounds. What values of cytotoxicity call were reported for them?
1. NC(=O)CN1CCCCCC1=O
2. C[C@H]1CN([C@@H](C)CO)C(=O)Cc2cc(NC(=O)Nc3ccc(Cl)c(Cl)c3)ccc2O[C@H]1CN(C)S(=O)(=O)c1ccc(Cl)cc1
3. CC(C)NC(=O)Nc1ccc2c(c1)CC(=O)N([C@@H](C)CO)C[C@H](C)[C@@H](CN(C)S(=O)(=O)c1ccc(Cl)cc1)O2
4. COc1ccc(NC(=O)Nc2ccc3c(c2)C(=O)N([C@@H](C)CO)C[C@H](C)[C@H](CN(C)C(=O)C2CCCCC2)OCCCC[C@@H](C)O3)cc1
5. CC(=O)OC1CC(OC(C)=O)C2(C)C(CC(=O)C3(C)C2CCC2(C)C(c4ccoc4)OC(=O)C4OC423)C1(C)C (stereo not drawn)
6. Cc1ccccc1S(=O)(=O)N(C)C[C@@H]1Oc2ccc(NC(=O)Nc3cccc(C(F)(F)F)c3)cc2CC(=O)N([C@@H](C)CO)C[C@@H]1C

1. inactive
2. active
3. inactive
4. inactive
5. inactive
6. inactive

Observed cytotoxicity call, HepG2, `COc1ccc(CN(C)C[C@H]2OCCCC[C@@H](C)Oc3ccc(NS(=O)(=O)c4cccs4)cc3C(=O)N([C@H](C)CO)C[C@@H]2C)cc1` : inactive
